- Tested on: 786-O
- assay.method.text: Euclidean distance of Cell Painting phenotypic profile (signed KS, 77 features) to DMSO centroid (dimensionless distance); 5 or 10 uM (library dependent); higher = stronger phenotypic change vs DMSO (phenoactivity)
- condition.summary: 48 h
Counter-ions that a name gives are not always drawn.
Please respond with reported Euclidean distance for every item in the list.
Answers are plain numbers.

// below: answered compounds
compound: OC[C@H]1O[C@@H](OCCc2ccc(O)cc2)[C@H](O)[C@@H](O)[C@@H]1O [Salidroside]
tested.on: 786-O
Euclidean distance: 1.05
//
compound: C[C@H]1[C@H](OC(=O)CCC(=O)O)O[C@@H]2O[C@@]3(C)CC[C@H]4[C@H](C)CC[C@@H]1[C@@]24OO3 [Artesunate]
tested.on: 786-O
Euclidean distance: 1.44
//
compound: NC(=O)c1cnccn1 [Pyrazinamide]
tested.on: 786-O
Euclidean distance: 1.07
//
compound: CC(NCCC(c1ccccc1)c1ccccc1)c1ccccc1 (stereo unspecified) [Fendiline hydrochloride]
tested.on: 786-O
Euclidean distance: 1.96
//
compound: Cn1c(=O)c2[nH]cnc2n(C)c1=O [Aminophylline]
tested.on: 786-O
Euclidean distance: 1.11

Look at each compound and report its Euclidean distance.
1. O=C(CCCCCCNC(=O)c1cnc(N(c2ccccc2)c2ccccc2)nc1)NO [Ricolinostat (ACY-1215)]
2. O=C(CCCCCCNC(=O)c1cnc(N(c2ccccc2)c2ccccc2Cl)nc1)NO [Citarinostat (ACY-241)]
3. CS(=O)(=O)Nc1ccc([N+](=O)[O-])cc1Oc1ccccc1 [Nimesulide]

1: 1.87; 2: 1.92; 3: 1.43

Look at each compound and report its Euclidean distance.
1. Nc1ccccc1NC(=O)c1ccc(CNc2nccc(-c3cccnc3)n2)cc1 [Mocetinostat (MGCD0103)]
2. COC(=O)/C=C/C(=O)OCCN1C(=O)CCC1=O [Diroximel Fumarete]

3.18
0.82

* * *

- System: A549
- assay.method.text: Euclidean distance of Cell Painting phenotypic profile (signed KS, 77 features) to DMSO centroid (dimensionless distance); 5 or 10 uM (library dependent); higher = stronger phenotypic change vs DMSO (phenoactivity)
- condition.summary: 48 h
Counter-ions that a name gives are not always drawn.
measured.metric: Euclidean distance
Numbers only.

compound: CC[C@H]1[C@@H](O)[C@@H]2[C@H](CC[C@]3(C)[C@@H]([C@H](C)CCC(=O)O)CC[C@@H]23)[C@@]2(C)CC[C@@H](O)C[C@@H]12 [Obeticholic Acid]
observed: 0.614
--
compound: COc1cc(O)c2c(c1)oc(=O)c1c3cc(O)c(O)cc3oc21 [Wedelolactone]
observed: 1.94
--
compound: Cc1nnc(SCC2=C(C(=O)O)N3C(=O)[C@@H](NC(=O)Cn4cnnn4)[C@H]3SC2)s1 [Cefazolin Sodium]
observed: 0.587
--
compound: CCCCC1(COC(=O)CCC(=O)O)C(=O)N(c2ccccc2)N(c2ccccc2)C1=O [Suxibuzone]
observed: 0.893
--
compound: CCC(C)(C)c1ccc(CC(C)CN2C[C@@H](C)O[C@@H](C)C2)cc1 (some centres not stated) [Amorolfine HCl]
observed: 0.701

Look at each compound and report its Euclidean distance.
1. COC1=C2C[C@@H](C)C[C@H](OC)[C@H](O)[C@@H](C)/C=C(\C)[C@H](OC(N)=O)[C@@H](OC)/C=C\C=C(/C)C(=O)NC(=CC1=O)C2=O [Geldanamycin]
2. COc1ccc2c3c1O[C@H]1C[C@@H](O)C=C[C@@]31CCN(C)C2 [Galanthamine]

1. 3.3
2. 1.14
